Reference source for all entries: paper PMC7158045

Reported ΔTm at 10 µM is given for each of the following compounds.
testTarget: ZmDRIK1-K217-P492 (Zea mays)
Construct: kinase domain, K217-P492
Sequence (C0P4K9 1-514): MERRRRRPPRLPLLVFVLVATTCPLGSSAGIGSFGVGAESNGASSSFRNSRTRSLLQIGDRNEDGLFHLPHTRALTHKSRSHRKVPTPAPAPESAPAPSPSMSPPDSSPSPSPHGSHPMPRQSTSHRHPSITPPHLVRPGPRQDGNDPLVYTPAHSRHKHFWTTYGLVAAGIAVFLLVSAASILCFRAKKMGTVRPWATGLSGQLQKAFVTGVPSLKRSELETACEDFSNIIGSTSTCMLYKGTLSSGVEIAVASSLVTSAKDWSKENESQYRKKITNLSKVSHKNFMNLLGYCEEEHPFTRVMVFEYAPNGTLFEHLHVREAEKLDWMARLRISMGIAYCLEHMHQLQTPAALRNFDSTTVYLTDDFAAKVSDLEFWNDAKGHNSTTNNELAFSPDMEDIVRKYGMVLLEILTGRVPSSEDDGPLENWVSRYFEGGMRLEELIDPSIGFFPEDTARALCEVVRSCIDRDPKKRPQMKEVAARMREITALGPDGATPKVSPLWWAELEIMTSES
measurementProtocol: biochemical
conditionSet: read-out: dTm B, sheet ZmDRIK1-K217-P492;; DSF, Boltzmann fit, 0.1% DMSO
API: value field is a number in °C; no unit string.

• CN(C[C@@H]1COCCO1)S(=O)(=O)Nc1ccc2ccc3ncc(-c4cnn(C)c4)cc3c(=O)c2c1 = -1.12

Now, please, on to the next compound.
**Query** What ΔTm at 10 µM appears in the records for this compound with ZmDRIK1-K217-P492 (Zea mays)? `O=C(Nc1cccc(Nc2ncc(Br)c(NCCc3cnc[nH]3)n2)c1)N1CCCC1`
**Result** -0.986

* * *

testTarget: ZmDRIK1-R187-P492 (Zea mays)
Construct: kinase domain, R187-P492
Sequence (C0P4K9 1-514): as above
measurementProtocol: biochemical
conditionSet: read-out: dTm B, DSF, Boltzmann fit, 0.1% DMSO
parameter: ΔTm at 10 µM (°C)
Unit °C implied. Number only.

Field: example entries. Status: answers known.
- COc1cc2c(Oc3ccc4[nH]c(C)cc4c3F)ncnc2cc1OCCCN1CCCC1: -0.191
- O=C(NC[C@H](O)CO)c1ccncc1Nc1ccc(I)cc1F: -0.33
- O=C1NC(=O)/C(=C/c2cccc(C(F)(F)F)c2)S1: 0.139
- O=C1NC(=O)/C(=C/c2ccc(-c3ccc(F)cc3O)o2)S1: 0.884
- Cc1ccc(C(=O)Nc2cccc(C(F)(F)F)c2)cc1Nc1nc(-c2cccnc2)nc2c1cnn2C: -0.0503
- Cc1cc(C(C)Nc2ccccc2)c2nc(N3CCOCC3)cc(=O)n2c1 (stereo not drawn): -0.136
- Cc1nc(N)sc1-c1ccnc(Nc2ccc(N3CCOCC3)cc2)n1: 0.313
- CC(C)(C)NS(=O)(=O)c1cncc(-c2cc(F)c3nc(N)nn3c2)c1: -0.444

Switching to the query record.
**Query** For COc1cc2/c(=N/c3ccc(Br)cc3F)nc[nH]c2cc1OCC1CCN(C)CC1 [Vandetanib (ZD6474)] , what is its reported ΔTm at 10 µM?
**Result** -0.154

* * *

// values below are reported ΔTm at 10 µM
testTarget: ZmDRIK1-K217-S514 (Zea mays)
Construct: kinase domain, K217-S514
Sequence (C0P4K9 1-514): as above
measurementProtocol: biochemical
conditionSet: read-out: dTm B, sheet ZmDRIK1-K217-S514;; DSF, Boltzmann fit, 0.1% DMSO
I'd appreciate it if you included the unit after the number.

Take a look at these entries with their results.
- C=CC(=O)Nc1cccc(Sc2nc(Nc3ccc(N4CCN(C)CC4)cc3)ncc2Cl)c1: -0.291 °C
- Cc1cc(C(=O)NOCCO)c(Nc2ccc(I)cc2F)n(C)c1=O: -0.42 °C
- C#Cc1cccc(Nc2ncnc3cc4c(cc23)OCCOCCOCCO4)c1: -0.34 °C
- COc1cc2ncnc(Oc3cccc(NC(=O)Nc4cc(C(C)(C)C(F)(F)F)on4)c3)c2cc1OC: -0.917 °C
- CCOC(=O)c1cnc2ccc(-c3cncc(NS(=O)(=O)c4ccccc4)c3)cn12: -0.361 °C

**Query** Endpoint output: ΔTm at 10 µM of `CNc1nc(-c2ccc3c(N)n[nH]c3c2)cc(N2C[C@@H](C(=O)NC3CCCCC3)CC[C@H]2C)n1` . Value?
**Result** -0.431 °C

**Query** Need ΔTm at 10 µM of `Cc1cc2c(F)c(Oc3ncnn4cc(OC[C@@H](C)O)c(C)c34)ccc2[nH]1` , thanks.
**Result** -0.0833 °C

**Query** Which value of ΔTm at 10 µM has been reported for `Cn1cc(C2=C(c3cn(C4CCN(Cc5ccccn5)CC4)c4ccccc34)C(=O)NC2=O)c2ccccc21` in the records?
**Result** -0.275 °C
